ASSAY_TARGET: human CD33 (human, UniProt P20138 18-364)
Sequence (P20138 18-364): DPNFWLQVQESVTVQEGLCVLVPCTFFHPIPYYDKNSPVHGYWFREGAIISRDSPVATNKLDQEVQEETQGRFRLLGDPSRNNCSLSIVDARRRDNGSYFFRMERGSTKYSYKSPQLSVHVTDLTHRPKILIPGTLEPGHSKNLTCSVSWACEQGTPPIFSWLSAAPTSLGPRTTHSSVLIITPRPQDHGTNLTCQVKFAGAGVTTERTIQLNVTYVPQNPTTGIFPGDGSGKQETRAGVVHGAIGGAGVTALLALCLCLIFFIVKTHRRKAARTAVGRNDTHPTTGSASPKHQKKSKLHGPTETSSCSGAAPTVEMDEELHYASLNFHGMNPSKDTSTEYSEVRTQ
EXPERIMENT_DESCRIPTION: cell-based or functional assay
Recorded Percent CD33 Surface Expression, DC % CD33 for the following binders
Kindly provide the numeric value in % only, without the unit symbol.

Worked cases, answers included:
BINDER	VALUE_OBSERVED
C-41 (antibody, V domains shown, human IgG1) VH: QLQLQESGPGLVKPSETLSLTCTVSGGSISSSSYYWGWIRQPPGKGLEWIGSISYSGSTYYNPSLKSRVTISVDTSKNQFSLKLSSVTAADTAVYYCAREGGKGMDVWGQGTLVTVSS VL: EIVLTQSPGTLSLSPGERATLSCRASQSVSSSFLAWYQQKPGQAPRLLIYGASSRATGIPDRFSGSGSGTDFTLTISRLEPEDFAVYYCQQFGDLPTFGGGTKVEIK	18.6
C-28 (antibody, V domains shown, human IgG1) VH: EVQLVESGGGLVQPGGSLRLSCAASGFTFSSYWMSWVRQAPGKGLEWVANINQDGSEKYYVDSVKGRFTISRDNAKNSLYLQMNSLRAEDTAVYYCAREGRRTMNAFDIWGQGTMVTVSS VL: DIQMTQSPSSLSASVGDRVTITCRASQSISSYLNWYQQKPGKAPKLLIYGASSLQSGVPSRFSGSGSGTDFTLTISSLQPEDFATYYCQQGYDVPITFGGGTKVEIK	14.8

Query: Any idea what Percent CD33 Surface Expression, DC % CD33 was measured for C-23 (antibody, V domains shown, human IgG1) VH: QVQLQESGPGLVKPSETLSLTCAVSGYSISSGYYWGWIRQPPGKGLEWIGTIYHSGSTYYNPSLKSRVTISVDTSKNQFSLKLSSVTAADTAVYYCAREVGVVGALPYFDYWGQGTLVTVSS VL: DIQMTQSPSSLSASVGDRVTITCRASQSISSYLNWYQQKPGKAPKLLIYGASSLQSGVPSRFSGSGSGTDFTLTISSLQPEDFATYYCQQASSSPPTFGGGTKVEIK ?
Result: 69.5

Query: Same lookup for C-24 (antibody, V domains shown, human IgG1) VH: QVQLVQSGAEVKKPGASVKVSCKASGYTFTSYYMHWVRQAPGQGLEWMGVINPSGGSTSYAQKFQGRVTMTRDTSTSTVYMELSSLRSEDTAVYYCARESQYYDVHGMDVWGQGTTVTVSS VL: DIQMTQSPSSLSASVGDRVTITCRASQSISSYLNWYQQKPGKAPKLLIYAASSLQSGVPSRFSGSGSGTDFTLTISSLQPEDFATYYCQQSVTPPLTFGGGTKVEIK , please.
Result: 28.8

Query: Same lookup for C-61 (antibody, V domains shown, human IgG1) VH: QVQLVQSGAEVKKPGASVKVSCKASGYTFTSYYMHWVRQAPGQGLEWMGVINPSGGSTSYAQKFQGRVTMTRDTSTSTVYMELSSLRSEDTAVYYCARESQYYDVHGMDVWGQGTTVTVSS VL: EIVLTQSPGTLSLSPGERATLSCRASQSVSSSYLAWYQQKPGQAPRLLIYGASSRATGIPDRFSGSGSGTDFTLTISRLEPEDFAVYYCQQYYGLPLTFGGGTKVEIK , please.
Result: 22.8

This collection of values is drawn from patent US20220281976A1.
